pIC50: −log10 of the molar value.
# UniProt P42336: pIC50 values follow
# Sequence (P42336 whole entry): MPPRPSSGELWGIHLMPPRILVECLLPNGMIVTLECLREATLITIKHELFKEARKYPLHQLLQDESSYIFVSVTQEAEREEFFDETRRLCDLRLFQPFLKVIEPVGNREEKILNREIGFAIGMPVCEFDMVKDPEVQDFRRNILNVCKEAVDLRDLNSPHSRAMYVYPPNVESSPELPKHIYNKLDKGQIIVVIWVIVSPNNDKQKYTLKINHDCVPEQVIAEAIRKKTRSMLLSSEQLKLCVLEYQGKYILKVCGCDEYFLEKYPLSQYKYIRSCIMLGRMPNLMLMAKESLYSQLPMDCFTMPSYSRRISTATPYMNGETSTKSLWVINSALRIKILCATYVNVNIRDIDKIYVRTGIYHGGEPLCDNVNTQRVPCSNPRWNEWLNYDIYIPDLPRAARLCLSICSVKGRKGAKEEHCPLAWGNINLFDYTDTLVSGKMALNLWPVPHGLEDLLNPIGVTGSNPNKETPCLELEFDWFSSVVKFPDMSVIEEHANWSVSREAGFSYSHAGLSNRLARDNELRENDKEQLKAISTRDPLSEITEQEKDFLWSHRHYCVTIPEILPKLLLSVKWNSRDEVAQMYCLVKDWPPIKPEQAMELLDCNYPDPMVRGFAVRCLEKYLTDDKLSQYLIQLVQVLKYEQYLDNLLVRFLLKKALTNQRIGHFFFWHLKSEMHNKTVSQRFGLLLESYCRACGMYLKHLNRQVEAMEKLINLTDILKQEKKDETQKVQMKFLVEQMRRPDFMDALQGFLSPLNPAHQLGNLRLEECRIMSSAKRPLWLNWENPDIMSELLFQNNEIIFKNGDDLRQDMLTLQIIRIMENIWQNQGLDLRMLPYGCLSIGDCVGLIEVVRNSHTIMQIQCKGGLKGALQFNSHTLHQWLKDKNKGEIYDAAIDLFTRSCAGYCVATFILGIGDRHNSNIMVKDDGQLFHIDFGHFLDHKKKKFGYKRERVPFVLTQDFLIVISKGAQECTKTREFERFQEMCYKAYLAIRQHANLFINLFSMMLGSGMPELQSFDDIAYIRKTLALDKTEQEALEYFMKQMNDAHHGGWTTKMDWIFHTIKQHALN
# Sequence (P27986 whole entry partner): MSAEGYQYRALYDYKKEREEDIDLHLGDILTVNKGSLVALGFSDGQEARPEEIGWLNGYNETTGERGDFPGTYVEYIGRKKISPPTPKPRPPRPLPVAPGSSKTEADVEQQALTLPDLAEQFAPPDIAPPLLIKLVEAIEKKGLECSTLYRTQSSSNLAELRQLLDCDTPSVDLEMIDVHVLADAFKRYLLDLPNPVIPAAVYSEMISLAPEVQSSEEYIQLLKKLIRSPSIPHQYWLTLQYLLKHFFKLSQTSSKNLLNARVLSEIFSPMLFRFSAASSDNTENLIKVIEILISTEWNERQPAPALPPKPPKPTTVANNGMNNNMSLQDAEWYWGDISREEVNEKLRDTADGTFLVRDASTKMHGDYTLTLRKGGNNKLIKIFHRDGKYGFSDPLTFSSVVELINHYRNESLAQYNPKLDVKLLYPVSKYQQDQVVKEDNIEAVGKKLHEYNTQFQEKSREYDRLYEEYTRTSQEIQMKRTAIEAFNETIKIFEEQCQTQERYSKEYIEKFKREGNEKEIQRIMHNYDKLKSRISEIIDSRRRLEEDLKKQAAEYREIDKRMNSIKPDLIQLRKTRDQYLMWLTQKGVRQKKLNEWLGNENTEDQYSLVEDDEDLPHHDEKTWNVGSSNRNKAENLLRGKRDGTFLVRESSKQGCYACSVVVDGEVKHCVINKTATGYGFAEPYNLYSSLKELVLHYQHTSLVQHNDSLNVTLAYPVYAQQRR

Examples with answers:
# COMPOUND, EXPERIMENTAL_READOUT, REPORTED
measured = [
    ("Cc1noc(C)c1-c1nc(Cc2ccc(Cl)cc2)c(-c2nnc[nH]2)s1", "pIC50", "< 6.00"),
    ("O[C@H](c1ccc(Cl)cc1)c1cc(-c2ccnc(Cl)c2)sc1-c1nnc[nH]1", "pIC50", "6.00 to 7.00"),
    ("O[C@H](c1ccc(Cl)cc1)c1nc(-c2ccncc2)sc1-c1nnc[nH]1 (single isomer, unassigned)", "pIC50", "< 6.00"),
]

Task item: Give recorded pIC50. CC(=O)Nc1cc(-c2nc(C(O)c3ccc(Cl)cc3)c(-c3ncc[nH]3)s2)ccn1 (stereo not shown)
Reply: < 6.00

Task item: Give recorded pIC50. O[C@H](c1ccc(Cl)cc1)c1cc(-c2ccnnc2)sc1-c1nnc[nH]1
Reply: < 6.00

Task item: Give recorded pIC50. N#Cc1c(-c2ccncc2)sc(C(=O)O)c1Cc1ccc(Cl)cc1
Reply: < 6.00

Task item: Give recorded pIC50. OC(c1ccc(Cl)cc1)c1cc(-c2ccnc3ccsc23)sc1-c1nnc[nH]1 (stereo not shown)
Reply: > 7.00

Task item: Give recorded pIC50. CC(=O)Nc1cc(-c2nc(Cc3ccccc3Cl)c(-c3ncc[nH]3)s2)ccn1
Reply: 6.00 to 7.00

Task item: Give recorded pIC50. OC(c1ccc(Cl)cc1)c1cc(-c2ccnc3[nH]ccc23)sc1-c1nnc[nH]1 (stereo not shown)
Reply: 6.00 to 7.00

Task item: Give recorded pIC50. Clc1ccc(Cc2nc(-c3ccncc3)sc2-c2nnc[nH]2)cc1Cl
Reply: < 6.00

Task item: Give recorded pIC50. CC(=O)Nc1cc(-c2nc(Cc3ccccc3)c(-c3ncc[nH]3)s2)ccn1
Reply: < 6.00

Task item: Give recorded pIC50. OC(c1ccc(Cl)cc1)c1cc(-c2ccnnc2)sc1-c1nnc[nH]1 (stereo not shown)
Reply: < 6.00

Task item: Give recorded pIC50. N#Cc1c(-c2ccnnc2)sc(-c2nnc[nH]2)c1Cc1ccc(Cl)cc1
Reply: < 6.00

Task item: Give recorded pIC50. Clc1ccc(Cc2nc(-c3ccncc3)sc2-c2ncc[nH]2)cc1
Reply: < 6.00

Task item: Give recorded pIC50. N#Cc1cc(-c2cc([C@H](O)c3ccc(Cl)cc3)c(-c3nnc[nH]3)s2)ccn1
Reply: < 6.00

Task item: Give recorded pIC50. Cc1nn2ccc(CN3CCNCC3)cc2c1-c1nc(Cc2ccc(Cl)cc2)c(-c2nnc[nH]2)s1
Reply: 6.00 to 7.00

Task item: Give recorded pIC50. Clc1ccc(Cc2cc(-c3ccncc3)sc2-c2nnc[nH]2)cc1
Reply: < 6.00

Task item: Give recorded pIC50. Fc1cnccc1-c1nc(Cc2ccc(Cl)cc2)c(-c2nc[nH]n2)s1
Reply: < 6.00

Task item: Give recorded pIC50. N#Cc1cc(-c2cc(C(O)c3ccc(Cl)cc3)c(-c3nnc[nH]3)s2)ccn1 (stereo not shown)
Reply: < 6.00

Task item: Give recorded pIC50. Cc1nn2ccc(CN)cc2c1-c1nc(Cc2ccc(Cl)cc2)c(-c2nnc[nH]2)s1
Reply: 6.00 to 7.00

Task item: Give recorded pIC50. Cc1nn2ccc(CN3CCC(N)CC3)cc2c1-c1nc(Cc2ccc(Cl)cc2)c(-c2nnc[nH]2)s1
Reply: 6.00 to 7.00

Task item: Give recorded pIC50. CNc1cc(-c2nc(Cc3ccc(Cl)cc3)c(-c3nnc[nH]3)s2)ccn1
Reply: < 6.00

Task item: Give recorded pIC50. O=c1ccnc(-c2sc(-c3ccncc3)nc2Cc2ccc(Cl)cc2)[nH]1
Reply: < 6.00

Task item: Give recorded pIC50. OC(c1ccc(Cl)cc1)c1cc(-c2ccnc3ccccc23)sc1-c1nnc[nH]1 (stereo not shown)
Reply: 6.00 to 7.00

Task item: Give recorded pIC50. N#Cc1c(-c2ccnnc2)sc(-c2nnc[nH]2)c1Cc1ccc2ccccc2c1
Reply: < 6.00
